system: fibroblasts of patients affected by Sanfilippo A (MPS IIIA); assay: HS and Lamp1 immunofluorescence in Sanfilippo A patient fibroblasts; format: cell-based, human; details: MPS-IIIA fibroblasts, 20 μM, 48 hours
Structures can show the parent of a compound that is named as a salt.
Measured Relative fluorescence intensity compared to HDFa, Lamp1 of individual entries
quantity measured: Relative fluorescence intensity compared to HDFa, Lamp1

> print(dat)
                                   molecule                              assay.target  recorded.result
1  CCCCCCCCCOCCCCCN1C[C@@H](O)[C@H](O)[C@@H](O)[C@@H]1CO [L-NPDNJ•HCl]  fibroblasts of patients affected by Sanfilippo A (MPS IIIA)              2.8
2  CCCCN1C[C@@H](O)[C@H](O)[C@@H](O)[C@@H]1CO [L-NBDNJ•HCl, N-butyl-L-deoxynojirimycin]  fibroblasts of patients affected by Sanfilippo A (MPS IIIA)              1.9
3  CCCCCCCCCN1C[C@@H](O)[C@H](O)[C@@H](O)[C@@H]1CO [L-NNDNJ•HCl]  fibroblasts of patients affected by Sanfilippo A (MPS IIIA)              3.0
4  OC[C@H]1[C@H](O)[C@@H](O)[C@H](O)CN1CCCCCOCC12CC3C[C@H](C1)C[C@H](C3)C2 [L-AMPDNM•HCl, N-adamantanomethoxypentyl L-DNJ]  fibroblasts of patients affected by Sanfilippo A (MPS IIIA)              2.2
5  COCCCCCCCCCN1C[C@@H](O)[C@H](O)[C@@H](O)[C@@H]1CO [L-MONDNJ•HCl, N-methoxynonyl L-DNJ]  fibroblasts of patients affected by Sanfilippo A (MPS IIIA)              2.2
6  OC[C@@H]1NC[C@@H](O)[C@H](O)[C@H]1O [L-DNJ•HCl]  fibroblasts of patients affected by Sanfilippo A (MPS IIIA)              1.8
7  CCCCCCOCCCCCN1C[C@@H](O)[C@H](O)[C@@H](O)[C@@H]1CO [L-HPDNJ•HCl]  fibroblasts of patients affected by Sanfilippo A (MPS IIIA)              3.1
